Test system: M. tuberculosis in smear positive sputum sediments
Format: cell-based, Mycobacterium tuberculosis
CONDITION PARAMETERS: sediment phage assay result S; total 22 sediments
Where a name gives a salt, the structure may show the parent alone.
Consider the following compounds and their measured Culture R (n samples) readings.
I only need the number, thanks.

NNC(=O)c1ccncc1 ... 0

Record [H]/N=C(/N)N[C@H]1[C@H](O)[C@@H](O)[C@H](O[C@@H]2O[C@@H](C)[C@](O)(C=O)[C@H]2O[C@@H]2O[C@@H](CO)[C@H](O)[C@@H](O)[C@@H]2NC)[C@@H](N/C(N)=N\[H])[C@@H]1O [Streptomycin, streptomycin sulfate] , field Culture R (n samples): 1

Record `CO[C@H]1/C=C/O[C@@]2(C)Oc3c(C)c(O)c4c(O)c(c(/C=N/N5CCN(C)CC5)c(O)c4c3C2=O)NC(=O)/C(C)=C\C=C\[C@H](C)[C@H](O)[C@@H](C)[C@@H](O)[C@@H](C)[C@H](OC(C)=O)[C@@H]1C` , field Culture R (n samples): 0

Record CC[C@@H](CO)NCCN[C@@H](CC)CO [Ethambutol, ethambutol hydrochloride] , field Culture R (n samples): 0
